Record form. Attribute: viability, T/C. Fill in for each entry.
Tested on: 323965-272-R-J2-PDC complex spheroid growth, % test/control
Assay: Anticancer human tumor 323965-272-R-J2-PDC patient-derived pancreatic carcinoma cell line growth inhibition [Asc]
Conditions: second compound 3 µM; first compound 0.1 µM; stronger effect = lower value
Numbers only here, please. The scale is %.

Enquiry: viability, T/C lookup needed for CCN1CCN(Cc2ccc(Nc3ncc(F)c(-c4cc(F)c5nc(C)n(C(C)C)c5c4)n3)nc2)CC1 + CCN1C(C(=O)NC23CCC(C(=O)O)(CC2)CC3)C(c2cccc(Cl)c2F)C2(C(=O)Nc3cc(Cl)ccc32)C12CCCCC2 , thanks.
Return: 77

Enquiry: Param item: COc1c(OCCCN2CCOCC2)ccc2c3n(c(=NC(=O)c4cnc(N)nc4)nc12)CCN3 + CCN1C(C(=O)NC23CCC(C(=O)O)(CC2)CC3)C(c2cccc(Cl)c2F)C2(C(=O)Nc3cc(Cl)ccc32)C12CCCCC2
Return: 49.6

Enquiry: What about C=CC(=O)N1CCN(c2nc(=O)n(-c3c(C)ccnc3C(C)C)c3nc(-c4c(O)cccc4F)c(F)cc23)C(C)C1 (stereo not given) + CCN1C(C(=O)NC23CCC(C(=O)O)(CC2)CC3)C(c2cccc(Cl)c2F)C2(C(=O)Nc3cc(Cl)ccc32)C12CCCCC2 ?
Return: 71.5

Enquiry: Next record, please: O=C(c1ccc(F)c(F)c1Nc1ccc(I)cc1F)N1CC(O)([C@@H]2CCCCN2)C1 + CCN1C(C(=O)NC23CCC(C(=O)O)(CC2)CC3)C(c2cccc(Cl)c2F)C2(C(=O)Nc3cc(Cl)ccc32)C12CCCCC2
Return: 46.7

Enquiry: Repeat with NC1CCC(NC2CC2c2ccccc2)CC1 (stereo not given) + CCN1C(C(=O)NC23CCC(C(=O)O)(CC2)CC3)C(c2cccc(Cl)c2F)C2(C(=O)Nc3cc(Cl)ccc32)C12CCCCC2
Return: 87.7

Enquiry: Now the compound C=C(F)C(=O)N1CCN(c2nc(OCC3CCCN3C)nc3c2CCN(c2cccc4cccc(Cl)c24)C3)CC1CC#N (stereo not given) + CCN1C(C(=O)NC23CCC(C(=O)O)(CC2)CC3)C(c2cccc(Cl)c2F)C2(C(=O)Nc3cc(Cl)ccc32)C12CCCCC2
Return: 57

Enquiry: Also CNC(C)C(=O)NC1CN(S(=O)(=O)c2cccc(S(=O)(=O)N3CCC4CCC(C(=O)NC(c5ccccc5)c5ccccc5)N4C(=O)C(NC(=O)C(C)NC)C3)c2)CCC2CCC(C(=O)NC(c3ccccc3)c3ccccc3)N2C1=O (stereo not given) + CCN1C(C(=O)NC23CCC(C(=O)O)(CC2)CC3)C(c2cccc(Cl)c2F)C2(C(=O)Nc3cc(Cl)ccc32)C12CCCCC2 ?
Return: 101

Enquiry: Now the compound Cn1ncnc1[C@H]1c2n[nH]c(=O)c3cc(F)cc(c23)N[C@@H]1c1ccc(F)cc1 + CCN1C(C(=O)NC23CCC(C(=O)O)(CC2)CC3)C(c2cccc(Cl)c2F)C2(C(=O)Nc3cc(Cl)ccc32)C12CCCCC2
Return: 85.8

Enquiry: Also O=C(c1cc(Cc2n[nH]c(=O)c3ccccc23)ccc1F)N1CCN(C(=O)C2CC2)CC1 + CCN1C(C(=O)NC23CCC(C(=O)O)(CC2)CC3)C(c2cccc(Cl)c2F)C2(C(=O)Nc3cc(Cl)ccc32)C12CCCCC2 ?
Return: 105

Enquiry: Would you mind doing C#Cc1c(F)ccc2cc(O)cc(-c3ncc4c(N5CC6CCC(C5)N6)nc(OCC56CCCN5CC(F)C6)nc4c3F)c12 (stereo not given) + CCN1C(C(=O)NC23CCC(C(=O)O)(CC2)CC3)C(c2cccc(Cl)c2F)C2(C(=O)Nc3cc(Cl)ccc32)C12CCCCC2 as well?
Return: 102

* * *

I'd be grateful if you could share measured viability, T/C for these entries.
Tested on: 323965-272-R-J2-PDC complex spheroid growth, % test/control
Test: Anticancer human tumor 323965-272-R-J2-PDC cell line growth inhibition [Asc];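 further: compound exposure lasted 7 days starting three days after spheroid seeding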;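 on viability, T/C: 100% = DMSO vehicle control wells with viability set relative to vehicle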
Conditions: second compound 1 µM; first compound 0.316 µM; stronger effect = lower value
Report the figure in % without appending any unit label.

Enquiry: Fill blank: measured viability, T/C of the compound CCN1CCN(Cc2ccc(Nc3ncc(F)c(-c4cc(F)c5nc(C)n(C(C)C)c5c4)n3)nc2)CC1 + Cc1c(S(C)(=O)=O)c(-c2cc(F)cc(N3CCN(c4ccc(NS(=O)(=O)c5ccc(NC(CCN6CCC(C(=O)OCCCP(=O)(O)O)CC6)CSc6ccccc6)c(S(=O)(=O)C(F)(F)F)c5)cc4)CC3)c2)c(-c2ccc(Cl)cc2)n1C(C)C is ____.
Return: 72.8

Enquiry: Can you check CCN1CCN(Cc2ccc(Nc3ncc(F)c(-c4cc(F)c5nc(C)n(C(C)C)c5c4)n3)nc2)CC1 + CNC(C)C(=O)NC1CN(S(=O)(=O)c2cccc(S(=O)(=O)N3CCC4CCC(C(=O)NC(c5ccccc5)c5ccccc5)N4C(=O)C(NC(=O)C(C)NC)C3)c2)CCC2CCC(C(=O)NC(c3ccccc3)c3ccccc3)N2C1=O next?
Return: 79.7

Enquiry: Request: O=C(c1ccc(F)c(F)c1Nc1ccc(I)cc1F)N1CC(O)([C@@H]2CCCCN2)C1 + Cc1c(S(C)(=O)=O)c(-c2cc(F)cc(N3CCN(c4ccc(NS(=O)(=O)c5ccc(NC(CCN6CCC(C(=O)OCCCP(=O)(O)O)CC6)CSc6ccccc6)c(S(=O)(=O)C(F)(F)F)c5)cc4)CC3)c2)c(-c2ccc(Cl)cc2)n1C(C)C
Return: 16.7

* * *

System: 323965-272-R-J2-PDC complex spheroid growth, % test/control
Test: Anticancer human tumor 323965-272-R-J2-PDC cell line growth inhibition [Asc];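 further: compound exposure lasted 7 days starting three days after spheroid seeding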;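 on viability, T/C: 100% = DMSO vehicle control wells with viability set relative to vehicle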
Settings: second compound 0.01 µM; first compound 0.316 µM; stronger effect = lower value
Quantity Name: viability, T/C (%)
Give just the number in %; leave the unit off.

Enquiry: I have this compound here, O=C(c1ccc(F)c(F)c1Nc1ccc(I)cc1F)N1CC(O)([C@@H]2CCCCN2)C1 + CNC(C)C(=O)NC1CN(S(=O)(=O)c2cccc(S(=O)(=O)N3CCC4CCC(C(=O)NC(c5ccccc5)c5ccccc5)N4C(=O)C(NC(=O)C(C)NC)C3)c2)CCC2CCC(C(=O)NC(c3ccccc3)c3ccccc3)N2C1=O , and I need its recorded viability, T/C.
Return: 28.2

Enquiry: What do we get for C=CC(=O)N1CCN(c2nc(=O)n(-c3c(C)ccnc3C(C)C)c3nc(-c4c(O)cccc4F)c(F)cc23)C(C)C1 (stereo not drawn) + CNC(C)C(=O)NC1CN(S(=O)(=O)c2cccc(S(=O)(=O)N3CCC4CCC(C(=O)NC(c5ccccc5)c5ccccc5)N4C(=O)C(NC(=O)C(C)NC)C3)c2)CCC2CCC(C(=O)NC(c3ccccc3)c3ccccc3)N2C1=O ?
Return: 56.9

Enquiry: Lookup COc1c(OCCCN2CCOCC2)ccc2c3n(c(=NC(=O)c4cnc(N)nc4)nc12)CCN3 + CNC(C)C(=O)NC1CN(S(=O)(=O)c2cccc(S(=O)(=O)N3CCC4CCC(C(=O)NC(c5ccccc5)c5ccccc5)N4C(=O)C(NC(=O)C(C)NC)C3)c2)CCC2CCC(C(=O)NC(c3ccccc3)c3ccccc3)N2C1=O
Return: 36.8

* * *

System: 323965-272-R-J2-PDC complex spheroid growth, % test/control
Experiment: Anticancer human tumor 323965-272-R-J2-PDC cell line growth inhibition [Asc]; active = viability on the fitted dose curve at most 10% of control; inactive = the rest;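 further: compound exposure lasted 7 days starting three days after spheroid seeding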
Conditions: second compound 3.16 µM; first compound 1 µM
Valid outcomes are listed here; reply with one: class 1 = active, class 0 = inactive

Enquiry: // outcome(item) with item = CCN1CCN(Cc2ccc(Nc3ncc(F)c(-c4cc(F)c5nc(C)n(C(C)C)c5c4)n3)nc2)CC1 + Cc1c(S(C)(=O)=O)c(-c2cc(F)cc(N3CCN(c4ccc(NS(=O)(=O)c5ccc(NC(CCN6CCC(C(=O)OCCCP(=O)(O)O)CC6)CSc6ccccc6)c(S(=O)(=O)C(F)(F)F)c5)cc4)CC3)c2)c(-c2ccc(Cl)cc2)n1C(C)C
Return: class 0

Enquiry: Another compound to look at: O=C(c1ccc(F)c(F)c1Nc1ccc(I)cc1F)N1CC(O)([C@@H]2CCCCN2)C1 + Cc1c(S(C)(=O)=O)c(-c2cc(F)cc(N3CCN(c4ccc(NS(=O)(=O)c5ccc(NC(CCN6CCC(C(=O)OCCCP(=O)(O)O)CC6)CSc6ccccc6)c(S(=O)(=O)C(F)(F)F)c5)cc4)CC3)c2)c(-c2ccc(Cl)cc2)n1C(C)C
Return: class 1

* * *

Consider the following compounds; for each one, report its pIC50.
System: 323965-272-R-J2-PDC complex spheroid growth, % test/control
Test: Anticancer human tumor 323965-272-R-J2-PDC cell line growth inhibition [Asc];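 further: compound exposure lasted 7 days starting three days after spheroid seeding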
Conditions: curve of first compound; second compound 0.00316 µM
Interpret pIC50 as the negative base-10 log of the concentration measured in mol/L.

Enquiry: Give the reported pIC50 for Cc1nc(N2CCC3(CC2)COC(C)C3N)c(CO)nc1Sc1ccnc(N)c1Cl (stereo not given) + CNC(C)C(=O)NC1CN(S(=O)(=O)c2cccc(S(=O)(=O)N3CCC4CCC(C(=O)NC(c5ccccc5)c5ccccc5)N4C(=O)C(NC(=O)C(C)NC)C3)c2)CCC2CCC(C(=O)NC(c3ccccc3)c3ccccc3)N2C1=O (system: 323965-272-R-J2-PDC complex spheroid growth, % test/control).
Return: 6.00

Enquiry: Would you kindly repeat that for C=C(F)C(=O)N1CCN(c2nc(OCC3CCCN3C)nc3c2CCN(c2cccc4cccc(Cl)c24)C3)CC1CC#N (stereo not given) + CNC(C)C(=O)NC1CN(S(=O)(=O)c2cccc(S(=O)(=O)N3CCC4CCC(C(=O)NC(c5ccccc5)c5ccccc5)N4C(=O)C(NC(=O)C(C)NC)C3)c2)CCC2CCC(C(=O)NC(c3ccccc3)c3ccccc3)N2C1=O ?
Return: 5.45

Enquiry: Then this compound: O=C(c1ccc(F)c(F)c1Nc1ccc(I)cc1F)N1CC(O)([C@@H]2CCCCN2)C1 + CNC(C)C(=O)NC1CN(S(=O)(=O)c2cccc(S(=O)(=O)N3CCC4CCC(C(=O)NC(c5ccccc5)c5ccccc5)N4C(=O)C(NC(=O)C(C)NC)C3)c2)CCC2CCC(C(=O)NC(c3ccccc3)c3ccccc3)N2C1=O
Return: 7.01
